# Tested on: Type 1 Phosphodiesterase
# protocol.notes: Phosphodiesterase (PDE) Inhibition, Type 1 Phosphodiesterase
# Format: biochemical, bovine (coronary arteries)
# condition.details: Type 1 PDE, at 10^-5 M, substrate 3H-cGMP 1.0 μM
assay.endpoint: % Inhibition of hydrolysis of 3H-cGMP (%)
Use % as the unit, but write only the number.

QUERY: Answer with reported % Inhibition of hydrolysis of 3H-cGMP of Cc1nn(C)c2c(=O)[nH]c(-c3ccncc3)nc12
RESULT: 13

QUERY: Please give the documented % Inhibition of hydrolysis of 3H-cGMP of Cc1nn(C)c2c(=O)[nH]c(-c3ccc(Cl)cc3N)nc12
RESULT: 12

QUERY: Provide one value: measured % Inhibition of hydrolysis of 3H-cGMP of Cc1nn(C)c2c(=O)[nH]c(-c3ccc(N)cc3)nc12
RESULT: 15

QUERY: Give the reported % Inhibition of hydrolysis of 3H-cGMP for this compound. COc1ccc(-c2nc3c(C)nn(C)c3c(=O)[nH]2)c(OC)c1
RESULT: 26

QUERY: Supply reported % Inhibition of hydrolysis of 3H-cGMP belonging to this compound: Cc1nn(C)c2c(=O)[nH]c(Cc3ccccc3)nc12
RESULT: 71

QUERY: Specify % Inhibition of hydrolysis of 3H-cGMP for Cc1nn(C)c2c(=O)[nH]c(-c3ccc(Cl)cc3[N+](=O)[O-])nc12 and stop.
RESULT: 5

QUERY: // fetch % Inhibition of hydrolysis of 3H-cGMP given entry Cc1nn(C)c2c(=O)[nH]c(-c3ccc(Cl)c(Cl)c3)nc12
RESULT: 3

QUERY: Let me know recorded % Inhibition of hydrolysis of 3H-cGMP for Cc1nn(C)c2c(=O)[nH]c(-c3cccnc3)nc12 , thanks.
RESULT: 4

QUERY: Please give measured % Inhibition of hydrolysis of 3H-cGMP of the following entry: Cc1nn(C)c2c(=O)[nH]c(-c3cccc(N)c3)nc12
RESULT: 9

QUERY: Query % Inhibition of hydrolysis of 3H-cGMP for Cc1nn(C)c2c(=O)[nH]c(-c3ccccc3)nc12
RESULT: 14
